These entries and their values trace back to paper PMC11480844.

B1: H2-Kb / G2 (parent)
chain 1: GEQVEQRPPHLSVREGDSAVIICTYTDPNSYYFFWYKQEPGAGLQLLMKVFSSTEINEGQGFTVLLNKKDKQLSLNLTAAHPGDSAVYFCAVRTNQGGRALIFGTGTTVSVSP
chain 2: EAAVTQSPRSKVAVTGGKVTLSCHQTNNHDYMYWYRQDTGHGLRLIHYSYVADSTEKGDIPDGYKASRPSQENFSLILELASLSQTAVYFCASSGTDTEVFFGKGTRLTVV
chain 3: not shown
chain 4: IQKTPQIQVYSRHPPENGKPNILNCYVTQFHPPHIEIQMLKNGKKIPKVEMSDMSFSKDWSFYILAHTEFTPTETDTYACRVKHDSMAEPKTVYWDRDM
chain 5: SIINFEKL

variants of: B1; experiment: % of reporter cells activated (NFAT-GFP), raw; settings: with G2; scale: % of reporter cells activated; further: test concentration or dose not given here
measured-quantity: ratio to parent

sequence-variant	ratio to parent
chain 5 I2P	1.65
chain 5 E6M	1.15
chain 5 I2A	1.66
chain 5 E6V	1.7
chain 5 I3N	1.53

[1] chain 5 K7L
[2] chain 5 I3D
Lab log: flag the item ( 1 or 2 ) with the smaller ratio to parent figure. The response must carry the label of the picked entry.
2
(2: 1.26, 1: 2.32)

[A] chain 5 F5L
[B] chain 5 L8D
Lab log: flag the item ( A or B ) with the smaller ratio to parent figure. The response must carry the label of the picked entry.
B
